- Tested on: Staphylococcus epidermidis
- ASSAY PROTOCOL: Antimicrobial activity against Staphylococcus epidermidis ATCC 12228 incubated for 18 hrs by serial microdilution method
- Type: functional
- DETAILS: ATCC 12228, 18 h
Recorded MIC for the following compounds
PARAMETER: MIC

COMPOUND	PARAMETER	RESULT
CO[C@H]1/C=C/O[C@@]2(C)Oc3c(C)c(O)c4c(O)c(c(/C=N/NC5CCCCC5)c(O)c4c3C2=O)NC(=O)/C(C)=C\C=C\[C@H](C)[C@H](O)[C@@H](C)[C@@H](O)[C@@H](C)[C@H](OC(C)=O)[C@@H]1C	MIC	0.25 µg/mL
CO[C@H]1/C=C/O[C@@]2(C)Oc3c(C)c(O)c4c(O)c(c(/C=N/N5CCCC5)c(O)c4c3C2=O)NC(=O)/C(C)=C\C=C\[C@H](C)[C@H](O)[C@@H](C)[C@@H](O)[C@@H](C)[C@H](OC(C)=O)[C@@H]1C	MIC	0.25 µg/mL
CO[C@H]1/C=C/O[C@@]2(C)Oc3c(C)c(O)c4c(O)c(c(/C=N/N5CCCCCC5)c(O)c4c3C2=O)NC(=O)/C(C)=C\C=C\[C@H](C)[C@H](O)[C@@H](C)[C@@H](O)[C@@H](C)[C@H](OC(C)=O)[C@@H]1C	MIC	0.0312 µg/mL
CO[C@H]1/C=C/O[C@@]2(C)Oc3c(C)c(O)c4c(O)c(c(CN5CCN(c6ccccn6)CC5)c(O)c4c3C2=O)NC(=O)/C(C)=C\C=C\[C@H](C)[C@H](O)[C@@H](C)[C@@H](O)[C@@H](C)[C@H](OC(C)=O)[C@@H]1C	MIC	0.25 µg/mL
CO[C@H]1/C=C/O[C@@]2(C)Oc3c(C)c(O)c4c(O)c(c(CN5CCN(C(c6ccc(F)cc6)c6ccc(F)cc6)CC5)c(O)c4c3C2=O)NC(=O)/C(C)=C\C=C\[C@H](C)[C@H](O)[C@@H](C)[C@@H](O)[C@@H](C)[C@H](OC(C)=O)[C@@H]1C	MIC	4 µg/mL
CO[C@H]1/C=C/O[C@@]2(C)Oc3c(C)c(O)c4c(O)c(c(CN5CCC(NS(C)(=O)=O)CC5)c(O)c4c3C2=O)NC(=O)/C(C)=C\C=C\[C@H](C)[C@H](O)[C@@H](C)[C@@H](O)[C@@H](C)[C@H](OC(C)=O)[C@@H]1C	MIC	0.5 µg/mL
CO[C@H]1/C=C/O[C@@]2(C)Oc3c(C)c(O)c4c(O)c(c(CNC5CCCC(C(N)=O)C5)c(O)c4c3C2=O)NC(=O)/C(C)=C\C=C\[C@H](C)[C@H](O)[C@@H](C)[C@@H](O)[C@@H](C)[C@H](OC(C)=O)[C@@H]1C (some centres undefined)	MIC	0.25 µg/mL
CCS(=O)(=O)N1CCN(Cc2c3c(O)c4c(O)c(C)c5c(c4c2O)C(=O)[C@@](C)(O/C=C/[C@H](OC)[C@@H](C)[C@@H](OC(C)=O)[C@H](C)[C@H](O)[C@H](C)[C@@H](O)[C@@H](C)/C=C/C=C(/C)C(=O)N3)O5)CC1	MIC	0.25 µg/mL
CO[C@H]1/C=C/O[C@@]2(C)Oc3c(C)c(O)c4c(O)c(c(CN5CCN(c6ncccn6)CC5)c(O)c4c3C2=O)NC(=O)/C(C)=C\C=C\[C@H](C)[C@H](O)[C@@H](C)[C@@H](O)[C@@H](C)[C@H](OC(C)=O)[C@@H]1C	MIC	0.25 µg/mL

----------
logP at 1 h for assorted molecules
- ASSAY PROTOCOL: Lipophilicity, log P of the compound in octanol and water incubated for 1 h under shaking condition
- Assay type: physicochemical
PARAMETER: logP at 1 h

STRUCTURE SMILES STRING	NUMERIC VALUE
CO[C@H]1/C=C/O[C@@]2(C)Oc3c(C)c(O)c4c(O)c(c(CN5CCC(N(C)C)CC5)c(O)c4c3C2=O)NC(=O)/C(C)=C\C=C\[C@H](C)[C@H](O)[C@@H](C)[C@@H](O)[C@@H](C)[C@H](OC(C)=O)[C@@H]1C	1.23
CO[C@H]1/C=C/O[C@@]2(C)Oc3c(C)c(O)c4c(O)c(c(CN5CCN(c6ccncc6)CC5)c(O)c4c3C2=O)NC(=O)/C(C)=C\C=C\[C@H](C)[C@H](O)[C@@H](C)[C@@H](O)[C@@H](C)[C@H](OC(C)=O)[C@@H]1C	2.06
CO[C@H]1/C=C/O[C@@]2(C)Oc3c(C)c(O)c4c(O)c(c(CN5CCN(c6ccccn6)CC5)c(O)c4c3C2=O)NC(=O)/C(C)=C\C=C\[C@H](C)[C@H](O)[C@@H](C)[C@@H](O)[C@@H](C)[C@H](OC(C)=O)[C@@H]1C	1.99
CO[C@H]1/C=C/O[C@@]2(C)Oc3c(C)c(O)c4c(O)c(c(/C=N/NCc5ccccc5)c(O)c4c3C2=O)NC(=O)/C(C)=C\C=C\[C@H](C)[C@H](O)[C@@H](C)[C@@H](O)[C@@H](C)[C@H](OC(C)=O)[C@@H]1C	2.34

----------
- Test system: Staphylococcus aureus
- ASSAY PROTOCOL: Antimicrobial activity against MLSB-resistant Staphylococcus aureus incubated for 18 hrs by serial microdilution method
- Format: functional
// values below are reported MIC

COMPOUND	VALUE UNIT	MIC
CO[C@H]1/C=C/O[C@@]2(C)Oc3c(C)c(O)c4c(O)c(c(CNCC(=O)N5CCCCC5)c(O)c4c3C2=O)NC(=O)/C(C)=C\C=C\[C@H](C)[C@H](O)[C@@H](C)[C@@H](O)[C@@H](C)[C@H](OC(C)=O)[C@@H]1C	µg/mL	1
CO[C@H]1/C=C/O[C@@]2(C)Oc3c(C)c(O)c4c(O)c(c(/C=N/Nc5ccccc5)c(O)c4c3C2=O)NC(=O)/C(C)=C\C=C\[C@H](C)[C@H](O)[C@@H](C)[C@@H](O)[C@@H](C)[C@H](OC(C)=O)[C@@H]1C	µg/mL	1
CO[C@H]1/C=C/O[C@@]2(C)Oc3c(C)c(O)c4c(O)c(c(CN5CCN(C)C6(CCN(C)CC6)C5)c(O)c4c3C2=O)NC(=O)/C(C)=C\C=C\[C@H](C)[C@H](O)[C@@H](C)[C@@H](O)[C@@H](C)[C@H](OC(C)=O)[C@@H]1C	µg/mL	0.125
CO[C@H]1/C=C/O[C@@]2(C)Oc3c(C)c(O)c4c(O)c(c(/C=N/NCc5ccccc5)c(O)c4c3C2=O)NC(=O)/C(C)=C\C=C\[C@H](C)[C@H](O)[C@@H](C)[C@@H](O)[C@@H](C)[C@H](OC(C)=O)[C@@H]1C	µg/mL	0.5
CO[C@H]1/C=C/O[C@@]2(C)Oc3c(C)c(O)c4c(O)c(c(/C=N/NC5=NCCN5)c(O)c4c3C2=O)NC(=O)/C(C)=C\C=C\[C@H](C)[C@H](O)[C@@H](C)[C@@H](O)[C@@H](C)[C@H](OC(C)=O)[C@@H]1C	µg/mL	0.0078
CO[C@H]1/C=C/O[C@@]2(C)Oc3c(C)c(O)c4c(O)c(c(CN5CCC(NS(C)(=O)=O)CC5)c(O)c4c3C2=O)NC(=O)/C(C)=C\C=C\[C@H](C)[C@H](O)[C@@H](C)[C@@H](O)[C@@H](C)[C@H](OC(C)=O)[C@@H]1C	µg/mL	2
CO[C@H]1/C=C/O[C@@]2(C)Oc3c(C)c(O)c4c(O)c(c(CNC5CCCNC5=O)c(O)c4c3C2=O)NC(=O)/C(C)=C\C=C\[C@H](C)[C@H](O)[C@@H](C)[C@@H](O)[C@@H](C)[C@H](OC(C)=O)[C@@H]1C (stereo partly drawn)	µg/mL	0.5
CO[C@H]1/C=C/O[C@@]2(C)Oc3c(C)c(O)c4c(O)c(c(CN5CCN(Cc6ccc(F)cc6)CC5)c(O)c4c3C2=O)NC(=O)/C(C)=C\C=C\[C@H](C)[C@H](O)[C@@H](C)[C@@H](O)[C@@H](C)[C@H](OC(C)=O)[C@@H]1C	µg/mL	0.25
CO[C@H]1/C=C/O[C@@]2(C)Oc3c(C)c(O)c4c(O)c(c(CN5CCN(Cc6c(C)cc(C)cc6C)CC5)c(O)c4c3C2=O)NC(=O)/C(C)=C\C=C\[C@H](C)[C@H](O)[C@@H](C)[C@@H](O)[C@@H](C)[C@H](OC(C)=O)[C@@H]1C	µg/mL	2
CO[C@H]1/C=C/O[C@@]2(C)Oc3c(C)c(O)c4c(O)c(c(CN5CCN(c6ncccc6C(F)(F)F)CC5)c(O)c4c3C2=O)NC(=O)/C(C)=C\C=C\[C@H](C)[C@H](O)[C@@H](C)[C@@H](O)[C@@H](C)[C@H](OC(C)=O)[C@@H]1C	µg/mL	2
CO[C@H]1/C=C/O[C@@]2(C)Oc3c(C)c(O)c4c(O)c(c(/C=N/N5CCOCC5)c(O)c4c3C2=O)NC(=O)/C(C)=C\C=C\[C@H](C)[C@H](O)[C@@H](C)[C@@H](O)[C@@H](C)[C@H](OC(C)=O)[C@@H]1C	µg/mL	1
CO[C@H]1/C=C/O[C@@]2(C)Oc3c(C)c(O)c4c(O)c(c(CNCCN5CCCC5=O)c(O)c4c3C2=O)NC(=O)/C(C)=C\C=C\[C@H](C)[C@H](O)[C@@H](C)[C@@H](O)[C@@H](C)[C@H](OC(C)=O)[C@@H]1C	µg/mL	4
CO[C@H]1/C=C/O[C@@]2(C)Oc3c(C)c(O)c4c(O)c(c(CNC5CCN(S(C)(=O)=O)CC5)c(O)c4c3C2=O)NC(=O)/C(C)=C\C=C\[C@H](C)[C@H](O)[C@@H](C)[C@@H](O)[C@@H](C)[C@H](OC(C)=O)[C@@H]1C	µg/mL	0.5
